Cited source: patent US20120258967A1

Target: PI3Kα (p110α/p85α) (Homo sapiens, UniProt P42336)
Sequence (P42336 whole entry): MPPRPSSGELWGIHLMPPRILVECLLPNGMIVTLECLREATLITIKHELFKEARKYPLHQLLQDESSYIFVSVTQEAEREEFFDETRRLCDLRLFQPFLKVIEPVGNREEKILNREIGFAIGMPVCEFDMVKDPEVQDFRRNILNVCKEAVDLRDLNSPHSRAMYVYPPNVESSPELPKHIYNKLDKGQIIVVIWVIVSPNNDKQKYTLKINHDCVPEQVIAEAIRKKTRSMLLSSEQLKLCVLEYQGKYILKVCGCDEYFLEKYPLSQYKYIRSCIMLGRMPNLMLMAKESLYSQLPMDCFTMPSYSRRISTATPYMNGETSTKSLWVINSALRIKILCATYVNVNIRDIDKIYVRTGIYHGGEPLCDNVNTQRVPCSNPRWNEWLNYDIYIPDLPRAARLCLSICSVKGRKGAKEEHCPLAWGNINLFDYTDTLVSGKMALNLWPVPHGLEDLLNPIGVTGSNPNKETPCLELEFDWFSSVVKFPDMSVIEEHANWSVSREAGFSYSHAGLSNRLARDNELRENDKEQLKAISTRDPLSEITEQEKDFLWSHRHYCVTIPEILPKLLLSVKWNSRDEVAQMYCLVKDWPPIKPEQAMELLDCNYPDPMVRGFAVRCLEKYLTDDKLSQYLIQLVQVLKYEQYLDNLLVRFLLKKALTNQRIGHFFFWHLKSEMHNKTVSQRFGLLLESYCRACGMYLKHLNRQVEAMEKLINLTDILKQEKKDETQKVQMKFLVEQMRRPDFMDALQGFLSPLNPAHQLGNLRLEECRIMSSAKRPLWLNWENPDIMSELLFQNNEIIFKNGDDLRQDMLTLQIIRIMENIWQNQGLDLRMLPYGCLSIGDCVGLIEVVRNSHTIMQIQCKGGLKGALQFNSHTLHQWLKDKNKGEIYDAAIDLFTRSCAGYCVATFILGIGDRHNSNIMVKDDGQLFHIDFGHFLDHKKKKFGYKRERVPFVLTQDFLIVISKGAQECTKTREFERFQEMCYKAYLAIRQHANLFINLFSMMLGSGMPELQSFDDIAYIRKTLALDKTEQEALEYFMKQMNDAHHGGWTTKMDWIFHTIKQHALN
Sequence (P27986 whole entry partner): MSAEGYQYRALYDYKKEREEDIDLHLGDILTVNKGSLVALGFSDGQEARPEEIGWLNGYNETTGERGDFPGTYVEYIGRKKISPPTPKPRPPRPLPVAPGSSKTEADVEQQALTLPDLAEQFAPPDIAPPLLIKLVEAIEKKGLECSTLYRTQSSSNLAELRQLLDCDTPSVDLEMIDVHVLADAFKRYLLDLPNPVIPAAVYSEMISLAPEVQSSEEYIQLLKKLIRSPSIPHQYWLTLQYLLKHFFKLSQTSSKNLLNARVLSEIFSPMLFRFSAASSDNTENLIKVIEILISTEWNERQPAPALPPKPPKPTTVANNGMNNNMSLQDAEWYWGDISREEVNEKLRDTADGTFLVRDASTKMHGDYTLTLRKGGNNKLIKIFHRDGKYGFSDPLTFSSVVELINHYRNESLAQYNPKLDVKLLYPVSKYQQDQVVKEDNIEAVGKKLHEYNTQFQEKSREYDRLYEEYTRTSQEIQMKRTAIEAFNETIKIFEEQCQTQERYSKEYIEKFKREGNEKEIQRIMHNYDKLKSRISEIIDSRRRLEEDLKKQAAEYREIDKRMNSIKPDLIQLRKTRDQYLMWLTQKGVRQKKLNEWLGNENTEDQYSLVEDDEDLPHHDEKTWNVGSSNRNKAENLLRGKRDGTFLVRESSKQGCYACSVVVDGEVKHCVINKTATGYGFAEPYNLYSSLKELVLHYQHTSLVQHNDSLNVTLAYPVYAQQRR
Test: HTRF assay, potency against active PI3Kα
Conditions: [ATP]=50 μM, read-out: PI3Kα Inhibition
pIC50: −log10 of the molar value.
metric: pIC50

Examples from the recorded data:
>  <smiles representation>
CC(C)=CC(=O)CCC(=O)N1CCN(c2ccc(-c3cc(-c4cnc(N)nc4)nc(N4CCOCC4)c3)cc2)CC1

>  <metric>
pIC50

>  <assay result>
6.00 to 7.00

$$$$
>  <smiles representation>
Nc1ncc(-c2cc(C3=CCN(C(=O)Cc4ccc(NC(=O)/C=C(\c5ccccc5)C(F)(F)F)cc4)CC3)cc(N3CCOCC3)n2)cn1

>  <metric>
pIC50

>  <assay result>
7.00 to 8.00

$$$$
>  <smiles representation>
C/C=C/C(=O)Nc1ccc(CC(=O)N2CCN(c3cc(-c4cnc(N)nc4)nc(N4CCOCC4)c3)CC2)cc1

>  <metric>
pIC50

>  <assay result>
6.00 to 7.00

$$$$

Prompt: Give reported pIC50 for C/C(=C/C(=O)Nc1ccc(CC(=O)N2CC=C(c3cc(-c4cnc(N)nc4)nc(N4CCOCC4)c3)CC2)cc1)C(F)(F)F (PI3Kα (p110α/p85α) (Homo sapiens, UniProt P42336))
Completion: 6.00 to 7.00

Prompt: Give reported pIC50 for CC(C)/C(=C\C(=O)Nc1ccc(CC(=O)N2CCN(c3cc(-c4cnc(N)nc4)nc(N4CCOCC4)c3)CC2)cc1)C(F)(F)F (PI3Kα (p110α/p85α) (Homo sapiens, UniProt P42336))
Completion: 6.00 to 7.00

Prompt: Give reported pIC50 for Nc1ncc(-c2cc(N3CCN(C(=O)Cc4ccc(NC(=O)/C=C(\c5ccccc5)C(F)(F)F)cc4)CC3)cc(N3CCOCC3)n2)cn1 (PI3Kα (p110α/p85α) (Homo sapiens, UniProt P42336))
Completion: 7.00 to 8.00
